Molecular target: T1, Soluble CDCP1 extracellular domain (CDCP1-ECD) (SEQ ID NO:30) fused to Streptavidin Binding Protein (SBP) (human, UniProt Q9H5V8 30-663)
T1 construct: also called SBP-CDCP1-ECD
T1 sequence: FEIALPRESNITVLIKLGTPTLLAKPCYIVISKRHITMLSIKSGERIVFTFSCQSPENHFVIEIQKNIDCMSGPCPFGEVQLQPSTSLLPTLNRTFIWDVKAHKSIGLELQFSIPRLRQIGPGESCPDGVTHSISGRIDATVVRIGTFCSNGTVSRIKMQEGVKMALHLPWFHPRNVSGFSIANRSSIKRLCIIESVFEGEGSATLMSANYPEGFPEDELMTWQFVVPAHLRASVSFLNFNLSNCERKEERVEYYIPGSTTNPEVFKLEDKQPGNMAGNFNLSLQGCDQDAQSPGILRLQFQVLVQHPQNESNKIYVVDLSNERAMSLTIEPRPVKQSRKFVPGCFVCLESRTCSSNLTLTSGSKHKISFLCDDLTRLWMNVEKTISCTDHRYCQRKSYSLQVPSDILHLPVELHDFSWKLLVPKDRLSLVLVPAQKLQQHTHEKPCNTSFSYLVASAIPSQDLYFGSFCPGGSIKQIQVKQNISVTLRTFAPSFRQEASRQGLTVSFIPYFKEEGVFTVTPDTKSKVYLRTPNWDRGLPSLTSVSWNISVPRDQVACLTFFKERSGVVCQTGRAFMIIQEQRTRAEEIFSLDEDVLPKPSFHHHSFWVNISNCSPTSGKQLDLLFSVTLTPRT
Assay: ELISA on captured SBP-CDCP1-ECD, ratio relative to chimeric CUB4 (chHC4)

>  <binder>
hHC4-b / hLC4-b (antibody, V domains shown) VH: EVQLVESGGGLVKPGGSLRLSCAASGFTFNSYSMNWVRQAPGKGLEWVSSISSGGSYIYYADSVKGRFTISRDNAKNSLYLQMNSLRAEDTAVYYCARHPDYDGVWFAYWGQGTLVTVSS VL: EIVLTQSPATLSLSPGERATLSCSVSSSVFYVHWYQQKPGQAPRLLIYDTSKLASGIPARFSGSGSGTDYTLTISSLEPEDFAVYYCQQWNSNPPTFGGGTKVEIK

>  <binding result>
no binding

$$$$
>  <binder>
hHC4-K / hLC4-f (antibody, V domains shown) VH: EVQLVESGGGLVKPGGSLRLSCAASGFTFNSYGMSWVRQAPGKGLEWVSSISSGGSYIYYADSVKGRFTISRDNAKNSLYLQMNSLRAEDTAVYYCARHPDYDGVWFAYWGQGTLVTVSS VL: DIQMTQSPSSLSASVGDRVTITCSVSSSVFYVHWYQQKPGKAPKLLIYDTSKLASGVPSRFSGSGSGTDYTFTISSLQPEDIATYYCQQWNSNPPTFGGGTKVEIK

>  <binding result>
no binding

$$$$
